- tested.target: BbPMI (Borreliella burgdorferi)
- Sequence (O51368 entry or part of it): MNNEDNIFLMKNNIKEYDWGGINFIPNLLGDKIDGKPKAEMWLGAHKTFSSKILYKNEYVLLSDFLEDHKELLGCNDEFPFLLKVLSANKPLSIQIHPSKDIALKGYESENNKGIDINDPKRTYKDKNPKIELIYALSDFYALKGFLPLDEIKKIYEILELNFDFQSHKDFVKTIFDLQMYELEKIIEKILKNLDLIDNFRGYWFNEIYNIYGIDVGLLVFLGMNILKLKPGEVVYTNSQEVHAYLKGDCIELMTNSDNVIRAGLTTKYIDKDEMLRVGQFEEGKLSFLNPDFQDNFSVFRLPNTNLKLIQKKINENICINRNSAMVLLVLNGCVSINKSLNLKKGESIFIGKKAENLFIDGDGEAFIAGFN
pIC50: −log10 of the molar value.
measured.quantity: pIC50

// known answers, use as guide
| compound | measured.quantity | result |
| --- | --- | --- |
| Cc1ccc(C)c(-n2sc3ccc(F)cc3c2=O)c1 [NCGC00871020-01] | pIC50 | ~6.30 |
| O=c1c2ccc(F)cc2sn1-c1ccccc1 [NCGC00871019-01] | pIC50 | ~6.30 |
| Cc1ccc(C)c(-n2sc3cc(F)ccc3c2=O)c1 [MLS0315771] | pIC50 | 6.05 to 6.22 |

**Query** # return recorded pIC50 for input COc1ccc(-n2sc3ccc(F)cc3c2=O)cc1 [NCGC00871021-01]
**Result** ~6.30
